Recorded IC50, one value per entry.
# Test system: P-388
# runDescription: Inhibition of cell growth by counting cells, P-388
# Format: cell-based, mouse
# assaySetup: Mus musculus, P388, 72 h; three days of incubation; read-out: IC50 (molar) P-388
Please give a number only; it is taken to be in nM.

Solved cases below.
INSERT INTO assay_data (compound, quantitykind, readoutvalue) VALUES
  ('COc1cc2c(cc1OC(C)=O)CCN[C@]21CS[C@@H]2c3c(OC(C)=O)c(C)c4c(c3[C@H](COC1=O)N1C2[C@@H]2N[C@@H](Cc3cc(C)c(OC)c(O)c32)[C@@H]1C#N)OCO4 (some centres unmarked)', 'IC50', 0.125),
  ('COc1cc2c(cc1O)CCN[C@]21CS[C@@H]2c3c(O)c(C)c4c(c3[C@H](COC1=O)N1C2[C@H]2c3c(cc(C)c(OC)c3O)C[C@@H]([C@@H]1C#N)N2C)OCO4 (some centres unmarked)', 'IC50', 0.137),
  ('C=CCOC(=O)Oc1cc2c(cc1OC)[C@@]1(CS[C@@H]3c4c(OC(C)=O)c(C)c5c(c4[C@H](COC1=O)N1C3[C@H]3c4c(cc(C)c(OC)c4O)C[C@@H]([C@@H]1O)N3C)OCO5)NCC2 (some centres unmarked)', 'IC50', 0.118),
  ('CCCN1CCc2cc(O)c(OC)cc2[C@@]12CS[C@@H]1c3c(OC(C)=O)c(C)c4c(c3[C@H](COC2=O)N2C1[C@H]1c3c(cc(C)c(OC)c3O)C[C@@H]([C@@H]2C#N)N1C)OCO4 (some centres unmarked)', 'IC50', 0.123);

Proceed to the following item.
Ask: Look at this compound and give its reported IC50. CCCOc1cc2c(cc1OC)[C@@]1(CS[C@@H]3c4c(OC(C)=O)c(C)c5c(c4[C@H](COC1=O)N1C3[C@H]3c4c(cc(C)c(OC)c4OCCC)C[C@@H]([C@@H]1O)N3C)OCO5)NCC2 (some centres unmarked)
Reply: 591
